Tested on: A549
TEST_METHOD_NOTES: Cytotoxicity against human A549 cells by MTT assay
Type: functional, cell-based
pIC50: −log10 of the molar value.
Give Criterion met when the value for pIC50 is at least 6. Give Criterion not met when it is less.

Use the examples below as a reference point.
CCCCOC(=O)Nc1ccc(S(=O)(=O)N2C[C@H](c3ccccc3)NC2=O)cc1CC    Criterion met
Cc1cc(S(=O)(=O)N2C(=O)N[C@@H](c3ccccc3)C2C)ccc1NC(=O)c1ccc([N+](=O)[O-])cc1 (stereo not given in full)    Criterion not met

Can CCOC(=O)Nc1ccc(S(=O)(=O)N2C[C@H](c3ccccc3)NC2=O)c(C)c1C be said to have pIC50 at or above 6?
Criterion met

Can Cc1cc(S(=O)(=O)N2C(=O)N[C@@H](c3ccccc3)C2C)ccc1NC(=O)c1ccc(N)cc1 (stereo not given in full) be said to have pIC50 at or above 6?
Criterion not met

Can CCOC(=O)Nc1ccc(S(=O)(=O)N2C[C@H](c3ccccc3)NC2=O)cc1F be said to have pIC50 at or above 6?
Criterion not met

Can CCc1cc(S(=O)(=O)N2C[C@H](c3ccccc3)NC2=O)ccc1NC(=O)OC be said to have pIC50 at or above 6?
Criterion met

Can CCOC(=O)Nc1ccc(S(=O)(=O)N2C(=O)N[C@@H](c3ccccc3)C2C)cc1Cl (stereo not given in full) be said to have pIC50 at or above 6?
Criterion not met

Can CCOC(=O)Nc1ccc(S(=O)(=O)N2C[C@H](c3ccccc3)NC2=O)cc1C be said to have pIC50 at or above 6?
Criterion met

Can CCc1cc(S(=O)(=O)N2C[C@H](c3ccccc3)NC2=O)ccc1NC(=O)c1ccc(N)cc1 be said to have pIC50 at or above 6?
Criterion met
